// data source = paper PMC12040969

Test system: - MDAMB-231
assay-name: Antiproliferative assay (MTT) MDAMB-231
condition: MDAMB-231, 6.25 µM
Listed below: Average of Relative viability of cells (%) values for each entry.
Numeric only. Scale: %

Previously resolved entries follow.
COc1ccc(/C=C/C(=O)c2sc(SCC(=O)Nc3nc(-c4ccc(C)cc4)cs3)nc2C)cc1 [Compound 10o]: 37.3
Cc1nc(SCC(=O)Nc2nccs2)sc1C(=O)/C=C/c1ccc(F)cc1 [Compound 13c]: 71.6

# input Which Average of Relative viability of cells (%) value belongs to Cc1nc(SCC(=O)Nc2nccs2)sc1C(=O)/C=C/c1ccc(Cl)cc1 [Compound 13b] ?
# output 60.5

# input Would you mind doing Cc1ccc(-c2csc(NC(=O)CSc3nc(C)c(C(=O)/C=C/c4ccc(F)cc4)s3)n2)cc1 [Compound 10m] as well?
# output 68.5

====

Listed below: Tub. enzyme inhibition assay K. Activity values for each entry.
Tested on: tubulin
assay-name: Tubulin polymerization inhibition assay (Cytoskeleton kit);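 note: Cell-free tubulin polymerization read by fluorescent reporter enhancement over a 30 min reaction, with the compound-free kit control taken as 100% activity and inhibition relative to it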
condition: conc 1 (unit not given), control = 120, codes 522-537 run
Please reply with the number alone, leaving off any unit.

Cc1ccc(/C=C/C(=O)c2sc(SCC(=O)Nc3nc(-c4ccc(Cl)cc4)cs3)nc2C)cc1 [Compound 10i]: 96.892
Cc1ccc(-c2csc(NC(=O)CSc3nc(C)c(C(=O)/C=C/c4ccc(Cl)cc4)s3)n2)cc1 [Compound 10l]: 90.43

# input # returns recorded Tub. enzyme inhibition assay K. Activity (system: tubulin) for Cc1ccc(/C=C/C(=O)c2sc(SCC(=O)Nc3nccs3)nc2C)cc1 [Compound 13d]
# output 63.07

====

System: - MDAMB-231
assay-name: Antiproliferative assay (MTT) MDAMB-231
condition: MDAMB-231, 1.56 µM
Listed below: Average of Relative viability of cells (%) values for each entry.

Previously resolved entries follow.
Cc1nc(SCC(=O)Nc2nc(-c3ccc(Cl)cc3)cs2)sc1C(=O)/C=C/c1ccccc1 [Compound 10f]: 96.1%
Cc1nc(SCC(=O)Nc2nccs2)sc1C(=O)/C=C/c1ccc(Cl)cc1 [Compound 13b]: 91.7%
COc1ccc(/C=C/C(=O)c2sc(SCC(=O)Nc3nc(-c4ccc(C)cc4)cs3)nc2C)cc1 [Compound 10o]: 61.2%
Cc1nc(SCC(=O)Nc2nc(-c3ccc(Cl)cc3)cs2)sc1C(=O)/C=C/c1ccc(F)cc1 [Compound 10h]: 100%
Cc1nc(SCC(=O)Nc2nccs2)sc1C(=O)/C=C/c1ccc(F)cc1 [Compound 13c]: 100%

# input Which Average of Relative viability of cells (%) value belongs to Cc1ccc(-c2csc(NC(=O)CSc3nc(C)c(C(=O)/C=C/c4ccc(F)cc4)s3)n2)cc1 [Compound 10m] ?
# output 100%

# input Would you mind doing Cc1ccc(/C=C/C(=O)c2sc(SCC(=O)Nc3nc(-c4ccccc4)cs3)nc2C)cc1 [Compound 10d] as well?
# output 89.2%

# input Would you mind doing Cc1ccc(/C=C/C(=O)c2sc(SCC(=O)Nc3nccs3)nc2C)cc1 [Compound 13d] as well?
# output 71.2%

====

System: colon - HCT-116
assay-name: Antiproliferative assay (MTT) HCT-116
condition: HCT-116, 50 µM
Listed below: Average of Relative viability of cells (%) values for each entry.
Numeric only. Scale: %

Previously resolved entries follow.
Cc1nc(SCC(=O)Nc2nc(-c3ccc(Cl)cc3)cs2)sc1C(=O)/C=C/c1ccccc1 [Compound 10f]: 35.7
Cc1nc(SCC(=O)Nc2nccs2)sc1C(=O)/C=C/c1ccc(F)cc1 [Compound 13c]: 29.9
Cc1ccc(/C=C/C(=O)c2sc(SCC(=O)Nc3nc(-c4ccccc4)cs3)nc2C)cc1 [Compound 10d]: 29.7
COc1ccc(/C=C/C(=O)c2sc(SCC(=O)Nc3nc(-c4ccc(C)cc4)cs3)nc2C)cc1 [Compound 10o]: 15.2
Cc1nc(SCC(=O)Nc2nccs2)sc1C(=O)/C=C/c1ccc(Cl)cc1 [Compound 13b]: 27.4
Cc1nc(SCC(=O)Nc2nc(-c3ccc(Cl)cc3)cs2)sc1C(=O)/C=C/c1ccc(F)cc1 [Compound 10h]: 39.4
Cc1ccc(-c2csc(NC(=O)CSc3nc(C)c(C(=O)/C=C/c4ccc(F)cc4)s3)n2)cc1 [Compound 10m]: 43.7

Now for the compound whose Average of Relative viability of cells (%) we want.
# input # returns recorded Average of Relative viability of cells (%) (system: colon - HCT-116) for Cc1ccc(/C=C/C(=O)c2sc(SCC(=O)Nc3nccs3)nc2C)cc1 [Compound 13d]
# output 17.4
